- Tested on: KM12 colon
- Method Notes: NCI tumour cell line growth inhibition, 48 h
Measured TGI of individual entries

# annotated cases, reported TGI shown
>>> value("Cc1nnc2n1-c1ccccc1C(=S)N1CSCC21 (centres undefined)")
"> 100 µM"
>>> value("CC(C)=CCC/C(C)=C/CC/C(C)=C/CC/C(C)=C/CC/C(C)=C\\CC/C(C)=C/CC/C(C)=C/CC/C(C)=C/Cc1cc(O)ccc1O")
"2.53 µM"
>>> value("O=C1CCCCc2cccc(O)c21")
"> 100 µM"
>>> value("COc1ccc(NC(=O)/C(=C/c2ccc(N(CCC#N)CCC#N)cc2)NC(=O)c2cc([N+](=O)[O-])ccc2Cl)cc1")
"> 100 µM"
>>> value("COC(=O)c1c(C)cccc1/C=C1\\Cc2cc(C)cc(C)c2C1=O")
"> 100 µM"

// next entry
// recorded TGI for COC(=O)c1c(C)cccc1CC1Cc2c(C)cccc2C1=O (centres undefined) : 73.2 µM

Recorded values, source PubChem BioAssay (NCI).
